Where these numbers come from: patent US10670605B2

Assay Target: ACAT1 C119 (P24752) (Homo sapiens)
Method: Competitive isoTOP-ABPP, cell lysates
Type: binding
Conditions Used: 500 μm, in-vitro_ramos
Entries annotated with measured isoTOP-ABPP reactivity profile ratio, P24752_C119

Example results:
> print(dat)
                     structure.smiles  result
1  N#CC(=Cc1ccc(-c2ccccc2Cl)o1)C(N)=O     0.8
2         C=CC(=O)N1CCC(Cc2ccccc2)CC1     0.7
3        O=C(CCl)Nc1ccc(-c2ccccc2)cc1     0.8
4           COc1cc(NC(=O)CCl)cc(OC)c1     1.1

Entry under test: O=C(CCl)Nc1cccc2ncccc12 . Its isoTOP-ABPP reactivity profile ratio, P24752_C119 was 0.9

###

Assay Target: RRAGC C358 (Q9HB90) (Homo sapiens, UniProt Q9HB90)
Sequence (Q9HB90 2-399 limits assumed): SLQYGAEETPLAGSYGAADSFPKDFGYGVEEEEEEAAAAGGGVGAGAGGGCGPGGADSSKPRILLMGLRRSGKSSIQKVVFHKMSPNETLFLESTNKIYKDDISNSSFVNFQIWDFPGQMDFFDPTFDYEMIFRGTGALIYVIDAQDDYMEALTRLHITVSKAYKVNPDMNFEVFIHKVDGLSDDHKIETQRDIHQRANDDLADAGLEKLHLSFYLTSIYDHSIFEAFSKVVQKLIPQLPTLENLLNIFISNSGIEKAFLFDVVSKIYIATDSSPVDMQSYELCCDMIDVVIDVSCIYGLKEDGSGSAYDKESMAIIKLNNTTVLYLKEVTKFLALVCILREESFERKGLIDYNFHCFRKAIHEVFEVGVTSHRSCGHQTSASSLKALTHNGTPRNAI
Sequence (Q7L523 whole entry partner): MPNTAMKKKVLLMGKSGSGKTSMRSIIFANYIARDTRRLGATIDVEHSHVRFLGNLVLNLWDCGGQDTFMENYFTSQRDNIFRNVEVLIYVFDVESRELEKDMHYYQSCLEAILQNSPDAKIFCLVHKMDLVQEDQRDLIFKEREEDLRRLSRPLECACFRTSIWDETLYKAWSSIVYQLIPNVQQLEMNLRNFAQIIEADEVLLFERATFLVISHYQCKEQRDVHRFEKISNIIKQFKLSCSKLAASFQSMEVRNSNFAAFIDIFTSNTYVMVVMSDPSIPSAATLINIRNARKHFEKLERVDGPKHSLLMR
Method: Competitive isoTOP-ABPP, cell lysates
Assay type: binding
Conditions Used: 500 μm in-vitro ramos_231
Method: TEV digests were pressure loaded onto a 250 μm (inner diameter) fused silica capillary column packed with C18 resin (Aqua 5 μm, Phenomenex). The samples were analyzed by multidimensional liquid chromatography tandem mass spectrometry (MudPIT), using an LTQ-Velos Orbitrap mass spectrometer (Thermo Scientific) coupled to an Agilent 1200-series quaternary pump. […]
Recorded Metric: isoTOP-ABPP ratio (reactivity profile), Q9HB90_C358

Entry under test: COc1ccccc1OCCNC(=O)CCl . Its isoTOP-ABPP ratio (reactivity profile), Q9HB90_C358 was 1.1

Entry under test: CC(Cl)C(=O)Nc1cc(C(F)(F)F)cc(C(F)(F)F)c1 (centres unmarked) . Its isoTOP-ABPP ratio (reactivity profile), Q9HB90_C358 was 0.9

Entry under test: O=C(CCl)N1CCOCC1 . Its isoTOP-ABPP ratio (reactivity profile), Q9HB90_C358 was 1.7

Entry under test: O=C(CCl)NC12CC3CC(CC(C3)C1)C2 . Its isoTOP-ABPP ratio (reactivity profile), Q9HB90_C358 was 1.2

Entry under test: CC(C)CCOCCNC(=O)CCl . Its isoTOP-ABPP ratio (reactivity profile), Q9HB90_C358 was 0.3

###

Entries annotated with measured isoTOP-ABPP reactivity profile ratio, O14980_C34
Assay Target: XPO1 C34 (O14980) (Homo sapiens, UniProt O14980)
Sequence (O14980 whole entry): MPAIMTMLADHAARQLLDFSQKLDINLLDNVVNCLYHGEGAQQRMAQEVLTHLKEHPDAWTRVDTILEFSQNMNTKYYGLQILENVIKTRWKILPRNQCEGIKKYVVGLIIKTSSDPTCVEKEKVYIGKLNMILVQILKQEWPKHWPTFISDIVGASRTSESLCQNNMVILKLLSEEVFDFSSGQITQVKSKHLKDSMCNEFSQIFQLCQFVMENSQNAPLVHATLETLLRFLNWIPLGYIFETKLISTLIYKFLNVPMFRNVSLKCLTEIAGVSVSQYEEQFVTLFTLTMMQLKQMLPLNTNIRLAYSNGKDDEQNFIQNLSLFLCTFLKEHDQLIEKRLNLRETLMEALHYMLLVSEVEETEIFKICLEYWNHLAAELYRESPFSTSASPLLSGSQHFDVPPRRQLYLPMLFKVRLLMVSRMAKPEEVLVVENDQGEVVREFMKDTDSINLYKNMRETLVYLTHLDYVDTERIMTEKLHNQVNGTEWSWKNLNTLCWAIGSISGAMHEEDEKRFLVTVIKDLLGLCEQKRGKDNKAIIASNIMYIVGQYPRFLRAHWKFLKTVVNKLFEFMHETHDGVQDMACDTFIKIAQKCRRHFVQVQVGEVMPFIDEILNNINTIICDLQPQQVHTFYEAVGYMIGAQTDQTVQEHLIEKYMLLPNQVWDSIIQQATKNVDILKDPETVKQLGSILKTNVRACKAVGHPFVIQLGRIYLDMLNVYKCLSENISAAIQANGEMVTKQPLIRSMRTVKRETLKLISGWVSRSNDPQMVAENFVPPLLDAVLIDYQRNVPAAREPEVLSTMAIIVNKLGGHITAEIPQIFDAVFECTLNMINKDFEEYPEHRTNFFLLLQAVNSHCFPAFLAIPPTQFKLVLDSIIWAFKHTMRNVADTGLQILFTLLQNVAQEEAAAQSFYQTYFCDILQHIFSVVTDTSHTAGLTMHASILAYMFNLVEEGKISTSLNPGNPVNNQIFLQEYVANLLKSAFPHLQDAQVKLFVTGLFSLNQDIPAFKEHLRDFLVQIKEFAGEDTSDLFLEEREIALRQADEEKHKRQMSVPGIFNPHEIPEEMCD
Method: Competitive isoTOP-ABPP, cell lysates
Format: binding
Conditions Used: 500 μm, in-vitro_ramos
I only need the number, thanks.

Example results:
> print(dat)
                     structure.smiles                              assay.target  result
1             O=C(CCl)Nc1cccc2ncccc12  XPO1 C34 (O14980) (Homo sapiens, UniProt O14980)     1.0
2  N#CC(=Cc1ccc(-c2ccccc2Cl)o1)C(N)=O  XPO1 C34 (O14980) (Homo sapiens, UniProt O14980)     0.9
3        O=C(CCl)Nc1ccc(-c2ccccc2)cc1  XPO1 C34 (O14980) (Homo sapiens, UniProt O14980)     1.1

For the next question, use this compound.
For the compound C=CC(=O)N1CCC(Cc2ccccc2)CC1 , the measured isoTOP-ABPP reactivity profile ratio, O14980_C34 on XPO1 C34 (O14980) (Homo sapiens, UniProt O14980) was 1.0

###

Assay Target: PCK2 C306 (Q16822) (Homo sapiens, UniProt Q16822)
Sequence (Q16822 33-640): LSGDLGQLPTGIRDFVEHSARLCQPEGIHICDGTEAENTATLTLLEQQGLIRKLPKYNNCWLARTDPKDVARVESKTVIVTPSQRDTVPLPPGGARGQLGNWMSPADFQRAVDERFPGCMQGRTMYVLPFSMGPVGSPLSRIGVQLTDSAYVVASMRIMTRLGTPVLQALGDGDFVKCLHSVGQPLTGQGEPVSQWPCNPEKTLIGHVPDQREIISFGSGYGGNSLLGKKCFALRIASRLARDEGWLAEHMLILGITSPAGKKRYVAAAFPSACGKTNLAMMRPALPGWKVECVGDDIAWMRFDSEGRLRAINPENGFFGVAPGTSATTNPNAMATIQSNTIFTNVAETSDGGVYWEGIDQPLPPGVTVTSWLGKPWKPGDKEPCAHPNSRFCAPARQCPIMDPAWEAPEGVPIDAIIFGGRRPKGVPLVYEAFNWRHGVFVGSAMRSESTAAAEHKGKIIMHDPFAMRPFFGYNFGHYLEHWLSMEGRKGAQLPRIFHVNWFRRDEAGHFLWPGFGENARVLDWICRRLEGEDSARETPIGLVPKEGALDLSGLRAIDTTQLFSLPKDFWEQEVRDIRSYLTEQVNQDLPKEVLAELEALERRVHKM
Method: Competitive isoTOP-ABPP, cell lysates
Assay type: binding
Conditions Used: 500 μm, in-vitro_ramos_231
Entries annotated with measured isoTOP-ABPP reactivity ratio, Q16822_C306
I only need the number, thanks.

Example results:
> print(dat)
                           structure.smiles  result
1                O=C(CCl)Nc1ccccc1C1CCCCCC1     0.9
2  C=CC(=O)N(Cc1cccnc1)c1cc(C(F)(F)F)cc(C(F)(F)F)c1     1.9
3                CC(C)(C)c1cc(NC(=O)CCl)on1     3.2
4  C=CC(=O)Nc1cc(F)c(N2CCN(C(=O)OC(C)(C)C)CC2)c(F)c1     1.0

For the next question, use this compound.
For the compound Cc1ccc(C=C(C#N)C(=O)NCCN2CCOCC2)cc1 , the measured isoTOP-ABPP reactivity ratio, Q16822_C306 on PCK2 C306 (Q16822) (Homo sapiens, UniProt Q16822) was 1.2

###

Assay Target: PCK2 C306 (Q16822) (Homo sapiens, UniProt Q16822)
Method: Competitive isoTOP-ABPP, cell lysates
Type: binding
Conditions Used: 500 μm in-vitro ramos
Hi! Just check whether isoTOP-ABPP ratio (reactivity profile), Q16822_C306 is below 1. Below gives Satisfied, equal or above gives Not satisfied.

> print(dat)
                                   compound                              assay.target  assigned.category
1         CC(C)CCOCCNC(=O)CCl [compound 27]  PCK2 C306 (Q16822) (Homo sapiens, UniProt Q16822)      Not satisfied
2  O=C(CCl)NC12CC3CC(CC(C3)C1)C2 [compound 21]  PCK2 C306 (Q16822) (Homo sapiens, UniProt Q16822)      Not satisfied
3  O=C(CCl)N1CCC(C(O)(c2ccccc2)c2ccccc2)CC1 [compound 20]  PCK2 C306 (Q16822) (Homo sapiens, UniProt Q16822)      Not satisfied
4  O=C(CCl)N1CCN(CC(=O)N2CCOCC2)CC1 [compound 29]  PCK2 C306 (Q16822) (Homo sapiens, UniProt Q16822)          Satisfied

Next compound, please.
I'd appreciate it if you could check whether CCN(CC)c1ccc(S(N)(=O)=O)cc1NC(=O)CCl [compound 30] has isoTOP-ABPP ratio (reactivity profile), Q16822_C306 smaller than 1.
Not satisfied

###

Entries annotated with measured isoTOP-ABPP ratio Q9UPQ0_C140
Assay Target: cysteines in MDA-MB-231 and Ramos cells (Homo sapiens, UniProt Q9UPQ0)
Sequence (Q9UPQ0 whole entry, the tested form may be a part): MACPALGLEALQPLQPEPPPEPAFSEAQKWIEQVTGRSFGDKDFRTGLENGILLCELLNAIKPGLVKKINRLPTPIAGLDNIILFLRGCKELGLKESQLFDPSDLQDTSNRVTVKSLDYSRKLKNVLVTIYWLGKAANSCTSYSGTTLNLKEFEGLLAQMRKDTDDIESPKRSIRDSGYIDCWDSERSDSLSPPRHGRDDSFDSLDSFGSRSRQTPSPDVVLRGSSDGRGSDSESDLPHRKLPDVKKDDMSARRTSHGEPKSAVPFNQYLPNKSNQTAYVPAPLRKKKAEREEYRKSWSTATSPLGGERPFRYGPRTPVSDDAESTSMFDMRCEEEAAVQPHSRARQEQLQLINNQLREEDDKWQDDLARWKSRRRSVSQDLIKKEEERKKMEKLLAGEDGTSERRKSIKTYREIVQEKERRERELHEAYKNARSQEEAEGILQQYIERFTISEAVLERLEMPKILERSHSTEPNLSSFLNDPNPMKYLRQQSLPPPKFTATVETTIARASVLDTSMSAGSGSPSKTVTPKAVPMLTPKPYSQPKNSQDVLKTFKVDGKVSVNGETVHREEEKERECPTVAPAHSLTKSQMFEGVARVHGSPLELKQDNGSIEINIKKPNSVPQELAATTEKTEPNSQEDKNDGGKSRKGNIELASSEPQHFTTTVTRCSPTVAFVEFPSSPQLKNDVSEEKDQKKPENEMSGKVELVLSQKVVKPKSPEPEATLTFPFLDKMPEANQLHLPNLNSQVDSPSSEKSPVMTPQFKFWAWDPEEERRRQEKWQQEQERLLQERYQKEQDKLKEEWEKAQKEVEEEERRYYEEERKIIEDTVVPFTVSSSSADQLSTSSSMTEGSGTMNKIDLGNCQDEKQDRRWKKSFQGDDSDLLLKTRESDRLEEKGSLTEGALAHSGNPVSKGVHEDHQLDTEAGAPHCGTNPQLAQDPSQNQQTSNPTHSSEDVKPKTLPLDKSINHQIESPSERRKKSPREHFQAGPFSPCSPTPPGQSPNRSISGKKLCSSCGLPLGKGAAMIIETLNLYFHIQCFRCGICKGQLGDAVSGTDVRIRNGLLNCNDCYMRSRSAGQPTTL
Method: Competitive isoTOP-ABPP in situ (fragment-treated cells)
Format: cell-based
Conditions Used: 200 μM, insitu, 231
I only need the number, thanks.

Example results:
> print(dat)
                                   compound                              assay.target                recorded.metric  result
1         CC(C)CCOCCNC(=O)CCl [compound 27]  cysteines in MDA-MB-231 and Ramos cells (Homo sapiens, UniProt Q9UPQ0)  isoTOP-ABPP ratio Q9UPQ0_C140     0.7
2  O=C(CCl)NCCc1c[nH]c2ccccc12 [compound 13]  cysteines in MDA-MB-231 and Ramos cells (Homo sapiens, UniProt Q9UPQ0)  isoTOP-ABPP ratio Q9UPQ0_C140     1.1
3  O=C(CCl)NC(=O)NC12CC3CC(CC(C3)C1)C2 [compound 12]  cysteines in MDA-MB-231 and Ramos cells (Homo sapiens, UniProt Q9UPQ0)  isoTOP-ABPP ratio Q9UPQ0_C140     1.9

For the next question, use this compound.
For the compound C=CC(=O)Nc1cc(F)c(N2CCN(C(=O)OC(C)(C)C)CC2)c(F)c1 [compound 38] , the measured isoTOP-ABPP ratio Q9UPQ0_C140 on cysteines in MDA-MB-231 and Ramos cells (Homo sapiens, UniProt Q9UPQ0) was 2.5

###

Assay Target: ACAT1 C119 (P24752) (Homo sapiens, UniProt P24752)
Sequence (P24752 34-427): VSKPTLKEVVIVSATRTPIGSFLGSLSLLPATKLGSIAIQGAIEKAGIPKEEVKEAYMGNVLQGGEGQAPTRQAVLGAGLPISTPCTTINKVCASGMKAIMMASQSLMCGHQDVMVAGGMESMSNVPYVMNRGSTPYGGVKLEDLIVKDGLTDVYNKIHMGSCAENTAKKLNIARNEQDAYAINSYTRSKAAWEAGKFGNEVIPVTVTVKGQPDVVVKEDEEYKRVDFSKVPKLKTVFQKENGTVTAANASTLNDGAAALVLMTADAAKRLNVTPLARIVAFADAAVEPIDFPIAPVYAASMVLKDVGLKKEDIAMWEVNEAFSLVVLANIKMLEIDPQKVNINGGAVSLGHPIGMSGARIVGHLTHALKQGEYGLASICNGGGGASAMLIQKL
Method: Competitive isoTOP-ABPP, cell lysates
Type: binding
Conditions Used: 500 μm, in-vitro_ramos
Entries annotated with measured isoTOP-ABPP reactivity ratio, P24752_C119
I only need the number, thanks.

> print(dat)
                           structure.smiles                              assay.target  result
1        C=CC(=O)N1CCC(c2noc3ccc(F)cc23)CC1  ACAT1 C119 (P24752) (Homo sapiens, UniProt P24752)     0.8
2                O=C(CCl)Nc1ccccc1C1CCCCCC1  ACAT1 C119 (P24752) (Homo sapiens, UniProt P24752)     1.0
3  C=CC(=O)N(Cc1cccnc1)c1cc(C(F)(F)F)cc(C(F)(F)F)c1  ACAT1 C119 (P24752) (Homo sapiens, UniProt P24752)     0.7
4                 C=CC(=O)Nc1cc(C)c(Br)cc1C  ACAT1 C119 (P24752) (Homo sapiens, UniProt P24752)     0.9
5       Cc1ccc(C=C(C#N)C(=O)NCCN2CCOCC2)cc1  ACAT1 C119 (P24752) (Homo sapiens, UniProt P24752)     0.8
6                CC(C)(C)c1cc(NC(=O)CCl)on1  ACAT1 C119 (P24752) (Homo sapiens, UniProt P24752)     1.3
7  C=CC(=O)Nc1cc(F)c(N2CCN(C(=O)OC(C)(C)C)CC2)c(F)c1  ACAT1 C119 (P24752) (Homo sapiens, UniProt P24752)     1.7

For the molecule CCN(CC)c1ccc(S(N)(=O)=O)cc1NC(=O)CCl , the measured isoTOP-ABPP reactivity ratio, P24752_C119 on ACAT1 C119 (P24752) (Homo sapiens, UniProt P24752) was 0.9
